test system: A-375; test: Cell cycle arrest in human A375 cells assessed as accumulation at G2/M phase at 1 uM by FACS analysis; type: functional
Would you kindly list Activity for each of these molecules?
One number for each entry, in %.

{"columns": ["Molecular String", "Activity [%]"],
 "data": [
  ["COc1cc2c(cc1OCCCCCN1CCN(C(=O)c3ccccc3NCc3coc4ccccc4c3=O)CC1)N=C[C@@H]1CCCN1C2=O", 6.68],
  ["COc1cc2c(cc1O)N=C[C@@H]1CCCN1C2=O", 12.19],
  ["O=C(c1ccccc1NCc1coc2ccccc2c1=O)N1CCNCC1", 15.45],
  ["O=C(c1ccccc1NCc1ccc2ccccc2c1)N1CCNCC1", 14.78],
  ["COc1cc2c(cc1OCCCCCN1CCN(C(=O)c3ccccc3NCc3ccc4ccccc4c3)CC1)N=C[C@@H]1CCCN1C2=O", 1.97]
]}

Turning now to a further record.
Provide Activity, recorded with A-375, of COc1cc2c(cc1OCCCN1CCN(C(=O)c3ccccc3NCc3ccc4ccccc4c3)CC1)N=C[C@@H]1CCCN1C2=O
6.32

----------
system: KB; experiment: Cytotoxicity against human KB cells after 48 hrs by SRB assay; format: functional
Measured Attribute: GI50 (nM)
Give bare numbers, in nM.

Consider the worked cases shown below.
{"columns": ["Molecular String", "Units Label", "Result Number"],
 "data": [
  ["COc1cc2c(cc1O)N=C[C@@H]1CCCN1C2=O", "nM", 170],
  ["COc1cc2c(cc1OCCCN1CCN(C(=O)c3ccccc3NCc3cc(OC)c(OC)c(OC)c3)CC1)N=C[C@@H]1CCCN1C2=O", "nM", 150],
  ["COc1cc2c(cc1OCCCN1CCN(C(=O)c3ccccc3NCc3ccncc3)CC1)N=C[C@@H]1CCCN1C2=O", "nM", 150],
  ["COc1cc2c(cc1OCCCCCCN1CCN(C(=O)c3ccccc3NCc3cc(OC)c(OC)c(OC)c3)CC1)N=C[C@@H]1CCCN1C2=O", "nM", 150]
]}

Hi! Can you tell me GI50 for each of these molecules?
1. COc1cc2c(cc1OCCCCCN1CCN(C(=O)c3ccccc3NCc3ccc4ccccc4c3)CC1)N=C[C@@H]1CCCN1C2=O
2. COc1cc2c(cc1OCCCCCN1CCN(C(=O)c3ccccc3NCc3ccncc3)CC1)N=C[C@@H]1CCCN1C2=O
3. COc1cc2c(cc1OCCCCCN1CCN(C(=O)c3ccccc3NCc3coc4ccccc4c3=O)CC1)N=C[C@@H]1CCCN1C2=O

1. 130
2. 150
3. 150

----------
tested on: KB; assay: Cytotoxicity against human KB cells after 48 hrs by SRB assay; format: functional
Structures can show the parent of a compound that is named as a salt.
Assignment: determine reported GI50 for the given compounds.
Answers are plain numbers, in µM.

{"columns": ["Compound", "GI50 (µM)"],
 "data": [
  ["COc1cc2c(cc1OCCCN1CCN(C(=O)c3ccccc3NCc3ccc4ccccc4c3)CC1)N=C[C@@H]1CCCN1C2=O", 0.15],
  ["COc1cc2c(cc1OCCCCCN1CCN(C(=O)c3ccccc3NCc3cc(OC)c(OC)c(OC)c3)CC1)N=C[C@@H]1CCCN1C2=O", 0.14],
  ["COc1cccc2c1C(=O)c1c(O)c3c(c(O)c1C2=O)C[C@@](O)(C(=O)CO)C[C@@H]3O[C@H]1C[C@H](N)[C@H](O)[C@H](C)O1 [DOXORUBICIN HYDROCHLORIDE]", 0.17],
  ["COc1cc2c(cc1OCCCCCN1CCN(C(=O)c3cc(Cl)ccc3NCc3ccc4ccccc4c3)CC1)N=C[C@@H]1CCCN1C2=O", 0.14],
  ["COc1cc2c(cc1OCCCCCN1CCN(C(=O)c3cc(Cl)ccc3NCc3coc4ccccc4c3=O)CC1)N=C[C@@H]1CCCN1C2=O", 0.16],
  ["COc1cc2c(cc1OCCCCCCN1CCN(C(=O)c3ccccc3NCc3ccncc3)CC1)N=C[C@@H]1CCCN1C2=O", 0.15]
]}

// below: GI50 requested for another compound
Look up and report GI50, with KB as system, for COc1cc2c(cc1OCCCCCCN1CCN(C(=O)c3ccccc3NCc3ccc4ccccc4c3)CC1)N=C[C@@H]1CCCN1C2=O
0.15

----------
system: A-375; experiment: Cell cycle arrest in human A375 cells assessed as accumulation at S phase at 1 uM by FACS analysis; assay type: functional
Measured Attribute: Activity (%)
Numbers only, in %.

Here are 3 molecules together with their reported answers.
{"columns": ["Molecular String", "Units Label", "Activity"],
 "data": [
  ["COc1cc2c(cc1OCCCN1CCN(C(=O)c3ccccc3NCc3ccc4ccccc4c3)CC1)N=C[C@@H]1CCCN1C2=O", "%", 6.32],
  ["O=C(c1ccccc1NCc1ccc2ccccc2c1)N1CCNCC1", "%", 14.56],
  ["COc1cc2c(cc1OCCCCCN1CCN(C(=O)c3ccccc3NCc3coc4ccccc4c3=O)CC1)N=C[C@@H]1CCCN1C2=O", "%", 13.34]
]}

List Activity for every entry below, keeping the order given.
1. O=C(c1ccccc1NCc1coc2ccccc2c1=O)N1CCNCC1
2. COc1cc2c(cc1OCCCCCN1CCN(C(=O)c3ccccc3NCc3ccc4ccccc4c3)CC1)N=C[C@@H]1CCCN1C2=O
3. COc1cc2c(cc1O)N=C[C@@H]1CCCN1C2=O

1: 18.53; 2: 7.09; 3: 23.08

----------
system: MCF7; test: Cytotoxicity against human MCF7 cells after 48 hrs by SRB assay; type: functional; settings: MCF7, 48 h
Measured Attribute: GI50 (nM)
Give bare numbers, in nM.

Guide cases for GI50, answers given:
{"columns": ["Molecular String", "Units Label", "GI50"],
 "data": [
  ["COc1cc2c(cc1OCCCCCN1CCN(C(=O)c3cc(Cl)ccc3NCc3coc4ccccc4c3=O)CC1)N=C[C@@H]1CCCN1C2=O", "nM", 150],
  ["COc1cc2c(cc1OCCCN1CCN(C(=O)c3ccccc3NCc3ccc4ccccc4c3)CC1)N=C[C@@H]1CCCN1C2=O", "nM", 140]
]}

Give GI50 for all compounds that follow.
1. COc1cc2c(cc1O)N=C[C@@H]1CCCN1C2=O
2. COc1cc2c(cc1OCCCCCN1CCN(C(=O)c3ccccc3NCc3ccncc3)CC1)N=C[C@@H]1CCCN1C2=O

1. 170
2. 160

----------
test system: A2780; assay: Cytotoxicity against human A2780 cells after 48 hrs by SRB assay; format: functional; conditions: A2780, 48 h
Counter-ions that a name gives are not always drawn.
Measured Attribute: GI50

{"columns": ["Compound", "Measured Attribute", "Result"],
 "data": [
  ["COc1cc2c(cc1OCCCCCN1CCN(C(=O)c3cc(Cl)ccc3NCc3ccc4ccccc4c3)CC1)N=C[C@@H]1CCCN1C2=O", "GI50", "180 nM"],
  ["COc1cc2c(cc1OCCCCCCN1CCN(C(=O)c3ccccc3NCc3cc(OC)c(OC)c(OC)c3)CC1)N=C[C@@H]1CCCN1C2=O", "GI50", "170 nM"],
  ["COc1cc2c(cc1OCCCCCN1CCN(C(=O)c3ccccc3NCc3coc4ccccc4c3=O)CC1)N=C[C@@H]1CCCN1C2=O", "GI50", "180 nM"],
  ["COc1cc2c(cc1OCCCCCN1CCN(C(=O)c3ccccc3NCc3ccncc3)CC1)N=C[C@@H]1CCCN1C2=O", "GI50", "170 nM"],
  ["COc1cc2c(cc1OCCCCCN1CCN(C(=O)c3ccccc3NCc3cc(OC)c(OC)c(OC)c3)CC1)N=C[C@@H]1CCCN1C2=O", "GI50", "160 nM"]
]}

Batch request: GI50 for each of the following compounds.
1. COc1cccc2c1C(=O)c1c(O)c3c(c(O)c1C2=O)C[C@@](O)(C(=O)CO)C[C@@H]3O[C@H]1C[C@H](N)[C@H](O)[C@H](C)O1 [DOXORUBICIN HYDROCHLORIDE]
2. COc1cc2c(cc1OCCCCCCN1CCN(C(=O)c3ccccc3NCc3ccncc3)CC1)N=C[C@@H]1CCCN1C2=O
3. COc1cc2c(cc1OCCCCCCN1CCN(C(=O)c3ccccc3NCc3ccc4ccccc4c3)CC1)N=C[C@@H]1CCCN1C2=O
4. COc1cc2c(cc1OCCCCCN1CCN(C(=O)c3cc(Cl)ccc3NCc3coc4ccccc4c3=O)CC1)N=C[C@@H]1CCCN1C2=O
5. COc1cc2c(cc1O)N=C[C@@H]1CCCN1C2=O
6. COc1cc2c(cc1OCCCN1CCN(C(=O)c3ccccc3NCc3ccc4ccccc4c3)CC1)N=C[C@@H]1CCCN1C2=O

["160 nM", "190 nM", "190 nM", "180 nM", "140 nM", "170 nM"]
